Biological target: T1, wild type monomeric full-length HIV-1 YU-2 gp120 (HIV-1 YU-2, UniProt P35961 32-498)
T1 construct: domain: gp120; also called gp120YU-2; gp120 YU-2
Assay: SPR competition: fixed HIV-1 YU-2 gp120 mixed with rising concentrations of 36 and passed over immobilized 17b; y axis % gp120 binding to 17b falls from about 100 to near 0 between about 2 and 2500 nM
Bridges are numbered along the chain shown (N, C = ends). Where no end group is shown, it is not given here. [ ]: non-standard residue; d: D form.
recordedMetric: IC50 (nM)
Give the value in nM but do not write nM after it.

Which value of IC50 has been reported for DNI[4‑(4-(4-(thiophen-2-yl)phenyl)-1H-1,2,3-triazol-1-yl)proline]WK-NH2 (lactam 1-6, also called Compound 29N-2) [cPT 36 (29N-2)] in the records?
56
